# measured_target: Glutamate receptor ionotropic, AMPA (Rattus norvegicus, UniProt P19490+P19491+P19492+P19493)
# assay_overview: Binding affinity towards ionotropic glutamate receptor AMPA in rat cortical membranes using [3H]AMPA radioligand
# Format: cell membranes
pKi: −log10 of the molar value.
readout_type: pKi

O=C(Nc1nn[nH]n1)c1nc2c(O)nc3cc(Cl)ccc3n2n1 = 5.62
O=C(O)c1nc2c(=O)[nH]c3cc([N+](=O)[O-])ccc3n2n1 = 6.22

A: O=C(O)c1nc2c(=O)[nH]c3cc(Cl)cc(Cl)c3n2n1
B: CCOC(=O)c1nc2c(O)nc3cc(Br)ccc3n2n1
Q: Which shows the larger pKi value: A or B ? Pick one; state its label.
Ans: A
(A: 5.82, B: 5.48)
